# experimentalConditions: buffer; pH 7.4; 200.0 µM
reportedMetric: solubility kinetic

Answered examples (5):
Inquiry: Consider the compound shown here: CCOC(=O)c1ccc(S(=O)(=O)N2CCN(C(C)=O)CC2)cc1 What is its recorded solubility kinetic?
Reply text: > 51.1 µg/mL

Inquiry: Consider the compound shown here: CC1(C)Cc2cccc(OCC(=O)NCc3ccccc3F)c2O1 What is its recorded solubility kinetic?
Reply text: > 49.4 µg/mL

Inquiry: Consider the compound shown here: O=C(Nc1ccc(Cl)cn1)c1cc2c(s1)-c1ccccc1OC2 What is its recorded solubility kinetic?
Reply text: < 0.4 µg/mL

Inquiry: Consider the compound shown here: COc1ccc(S(=O)(=O)NC2CCCC2)cc1Cl What is its recorded solubility kinetic?
Reply text: > 43.5 µg/mL

Inquiry: Consider the compound shown here: Cc1cnc(C(=O)OCC(=O)Nc2cccc(C)c2C)cn1 What is its recorded solubility kinetic?
Reply text: > 44.9 µg/mL

---
Inquiry: Consider the compound shown here: CN1CCN(NC(=O)CC(C)(C)C)CC1 What is its recorded solubility kinetic?
Reply text: > 32 µg/mL

====

# experimentalConditions: buffer; pH 7.4; 200.0 µM
reportedMetric: solubility kinetic

Answered examples (2):
Inquiry: Consider the molecule shown here: COc1cccc(-c2nc3ccc([N+](=O)[O-])cc3o2)c1 What is its recorded solubility kinetic?
Reply text: < 0.3 µg/mL

Inquiry: Consider the molecule shown here: O=c1[nH]cc(N(CCO)CCO)c(=O)[nH]1 What is its recorded solubility kinetic?
Reply text: > 32.3 µg/mL

---
Inquiry: Consider the molecule shown here: CSc1ccc(NC(N)=S)cc1 What is its recorded solubility kinetic?
Reply text: > 29.7 µg/mL

====

Listing of recorded solubility kinetic by entry.
# experimentalConditions: buffer; pH 7.4; 200.0 µM

Inquiry: Consider the compound shown here: CC(NC(=O)CCNC(=O)c1ccccc1Cl)c1ccc(-n2ccnc2)cc1 (stereo unspecified) What is its recorded solubility kinetic?
Reply text: > 59.5 µg/mL

Inquiry: Consider the compound shown here: O=C(CSc1ccccc1F)NCC(c1cccs1)N1CCOCC1 (stereo unspecified) What is its recorded solubility kinetic?
Reply text: > 57.1 µg/mL

Inquiry: Consider the compound shown here: CN(C)CCO[C@@H](c1ccc(Cl)cc1)c1ccccn1.O=C(O)/C=C\C(=O)O What is its recorded solubility kinetic?
Reply text: > 61 µg/mL

Inquiry: Consider the compound shown here: O=C(O)CNC(=O)C(c1ccccc1)c1ccccc1 What is its recorded solubility kinetic?
Reply text: > 40.4 µg/mL

Inquiry: Consider the compound shown here: CC(C)c1ccccc1NC(=S)N(C)C What is its recorded solubility kinetic?
Reply text: > 33.4 µg/mL

Inquiry: Consider the compound shown here: O=C(Nc1ccc2c(c1)OCCO2)c1ccccc1 What is its recorded solubility kinetic?
Reply text: > 38.3 µg/mL

====

# experimentalConditions: buffer; pH 7.4; 200.0 µM
reportedMetric: solubility kinetic

Answered examples (5):
Inquiry: Consider the compound shown here: CC1=CC(C)C(C(=O)O)C(C(=O)N2CCN(C)CC2)C1 (centres undefined) What is its recorded solubility kinetic?
Reply text: > 42.1 µg/mL

Inquiry: Consider the compound shown here: COC(=O)/C=C/c1cnc2ccccc2c1 What is its recorded solubility kinetic?
Reply text: > 32 µg/mL

Inquiry: Consider the compound shown here: O=C1Nc2ccccc2C1C(C[N+](=O)[O-])c1ccccn1 (centres undefined) What is its recorded solubility kinetic?
Reply text: > 42.5 µg/mL

Inquiry: Consider the compound shown here: CN(CCOC(=O)c1ccc2c(c1)OCO2)C(C)(C)C.Cl What is its recorded solubility kinetic?
Reply text: 41.7 µg/mL

Inquiry: Consider the compound shown here: COc1ccc2c(c1)CC/C(=C\Nc1ccc3c(c1)OCO3)C2=O What is its recorded solubility kinetic?
Reply text: 11.2 µg/mL

---
Inquiry: Consider the compound shown here: O=C(COC(=O)CC1CCCC1)Nc1cccc(F)c1 What is its recorded solubility kinetic?
Reply text: > 41.9 µg/mL

Inquiry: Consider the compound shown here: Cc1ccc(NC(=S)N2CCCC(c3nc4ccccc4[nH]3)C2)cc1 (centres undefined) What is its recorded solubility kinetic?
Reply text: 2.3 µg/mL

Inquiry: Consider the compound shown here: CCOc1ccc(NC(=O)c2c3c(nc4ccccc24)CCC3)cc1 What is its recorded solubility kinetic?
Reply text: 1.4 µg/mL

Inquiry: Consider the compound shown here: N#Cc1ccc(NCCc2ccccn2)c([N+](=O)[O-])c1 What is its recorded solubility kinetic?
Reply text: > 40.2 µg/mL

Inquiry: Consider the compound shown here: CCC(=O)OC1(c2ccccc2)C(C)CN(C)CC1C.Cl (centres undefined) What is its recorded solubility kinetic?
Reply text: > 46.8 µg/mL

Inquiry: Consider the compound shown here: CCCCn1c(=S)[nH]c2cc(S(=O)(=O)N3CCOCC3)ccc21 What is its recorded solubility kinetic?
Reply text: > 53.3 µg/mL

Inquiry: Consider the compound shown here: COc1cc2ncnc(NCc3ccccc3F)c2cc1OC What is its recorded solubility kinetic?
Reply text: 41.8 µg/mL

Inquiry: Consider the compound shown here: O=[N+]([O-])c1cc(Cl)ccc1Sc1ccccn1 What is its recorded solubility kinetic?
Reply text: 23.3 µg/mL

Inquiry: Consider the compound shown here: CSc1ccc(/C=C/C(=O)N2CCCN(C)CC2)cc1.Cl What is its recorded solubility kinetic?
Reply text: 44.1 µg/mL

====

Listing of recorded solubility kinetic by entry.
# experimentalConditions: buffer; pH 7.4; 200.0 µM
Please reply with the bare figure in µg/mL and do not write the unit itself.

Inquiry: Consider the molecule shown here: Cc1ccc(NC(=O)CCN2C(=O)c3ccccc3C2=O)cc1C What is its recorded solubility kinetic?
Reply text: 4.6

Inquiry: Consider the molecule shown here: COc1ccc2[nH]cc(CCNC(=O)c3ccc([N+](=O)[O-])cc3)c2c1 What is its recorded solubility kinetic?
Reply text: 26.3

Inquiry: Consider the molecule shown here: C=CCn1cnc2scc(-c3ccc(OC)cc3)c2c1=O What is its recorded solubility kinetic?
Reply text: 39

---
Inquiry: Consider the molecule shown here: NC1=NC(c2ccccc2)=NC1(NC(=O)c1ccccc1)C(Cl)Cl (centres undefined) What is its recorded solubility kinetic?
Reply text: 44.4

Inquiry: Consider the molecule shown here: CCN(c1ccccc1)S(=O)(=O)c1ccc(C(=O)NCc2ccco2)cc1 What is its recorded solubility kinetic?
Reply text: 32

Inquiry: Consider the molecule shown here: CC(C)c1ccc(S(=O)(=O)N2CCN(C(=O)CN3C(=O)c4ccccc4C3=O)CC2)cc1 What is its recorded solubility kinetic?
Reply text: 3.1

Inquiry: Consider the molecule shown here: CC(C)N(CCc1ccncc1)C(=S)Nc1cccc(Cl)c1 What is its recorded solubility kinetic?
Reply text: 43.2

Inquiry: Consider the molecule shown here: COc1ccccc1OCCC(=O)OCC(=O)Nc1ccc2c(c1)OCO2 What is its recorded solubility kinetic?
Reply text: 16.3

Inquiry: Consider the molecule shown here: COc1cccc(Oc2ncnc(N)c2[N+](=O)[O-])c1 What is its recorded solubility kinetic?
Reply text: 31

Inquiry: Consider the molecule shown here: Cc1cc(N2CCOCC2)nc2ccc(NC(=S)N3CCCCC3C)cc12 (centres undefined) What is its recorded solubility kinetic?
Reply text: 41.5

Inquiry: Consider the molecule shown here: Nc1ccccc1S(=O)(=O)C(F)F What is its recorded solubility kinetic?
Reply text: 28.4

====

# experimentalConditions: buffer; pH 7.4; 200.0 µM
reportedMetric: solubility kinetic

Inquiry: Consider the molecule shown here: Nc1nc(C23CC4CC(CC(C4)C2)C3)[nH]c(=O)n1 What is its recorded solubility kinetic?
Reply text: > 36.9 µg/mL

---
Inquiry: Consider the molecule shown here: COc1ccc(C(=O)OC(C)CN2CCN(C)CC2)cc1.Cl (configuration not stated) What is its recorded solubility kinetic?
Reply text: > 49.3 µg/mL

Inquiry: Consider the molecule shown here: CN(C)C(=O)c1cc(C(=O)c2ccccc2Br)c[nH]1 What is its recorded solubility kinetic?
Reply text: 44.4 µg/mL

Inquiry: Consider the molecule shown here: CCOc1ccc(C(=O)N(CN2CCCC2=O)c2cccc(Cl)c2)cc1 What is its recorded solubility kinetic?
Reply text: > 55.9 µg/mL

Inquiry: Consider the molecule shown here: CCc1ccccc1NC(=O)Nc1cnccn1 What is its recorded solubility kinetic?
Reply text: 6.1 µg/mL

Inquiry: Consider the molecule shown here: CC(=O)c1ccc2noc(-c3ccc(C)cc3)c2c1 What is its recorded solubility kinetic?
Reply text: 26.2 µg/mL

Inquiry: Consider the molecule shown here: COc1cc(OC)c(N(C)S(=O)(=O)c2cccc(C(=O)Nc3nccs3)c2)cc1Cl What is its recorded solubility kinetic?
Reply text: 4.2 µg/mL

====

# experimentalConditions: buffer; pH 7.4; 200.0 µM
Listing of recorded solubility kinetic by entry.

Answered examples (5):
Inquiry: Consider the molecule shown here: COc1ccc(Cl)cc1C(=O)NCCCn1ccnc1 What is its recorded solubility kinetic?
Reply text: > 44.1 µg/mL

Inquiry: Consider the molecule shown here: COc1ccc(C(=S)N2CCCC2)cc1Br What is its recorded solubility kinetic?
Reply text: > 45 µg/mL

Inquiry: Consider the molecule shown here: O=S(=O)(c1ccc(Cl)nc1)N1CCCC1 What is its recorded solubility kinetic?
Reply text: > 37 µg/mL

Inquiry: Consider the molecule shown here: Cc1nn(CC(=O)NC2CCCCC2)c(=O)c2cccn12 What is its recorded solubility kinetic?
Reply text: > 43.3 µg/mL

Inquiry: Consider the molecule shown here: O=C(N/N=C/c1ccc2nccnc2c1)c1ccncc1 What is its recorded solubility kinetic?
Reply text: > 41.6 µg/mL

Lab note: next molecule to report on.
Inquiry: Consider the molecule shown here: Cc1nn(C(=O)N(C)C)c(C)c1CN1C(=O)c2ccccc2C1=O What is its recorded solubility kinetic?
Reply text: > 49 µg/mL
